MEASUREMENT_DESCRIPTION: physchem
TEST_PARAMETERS: water, Solubility in water: molarity, Table 2, free base, 24.8 °C
TEST_READOUT: solubility (µM)
Express the result in µM but write the number alone.

For this compound ( CN(C(=O)c1cnc(N2CC(C)(C)NC2=O)nc1N)c1cccc(C(F)(F)F)c1 ), measured solubility is 2000

###

TEST_PARAMETERS: Table 2; Temp. [°C]: hydrochloride 25.0, nitrate 23.5, p-toluenesulfonate 23.2, hydrogen (R,R)-tartrate 24.6, free base 24.8
TEST_READOUT: 1 part by mass dissolves in . . . parts of H2 O

COMPOUND	VALUE_OBSERVED
CN(C(=O)c1cnc(N2CC(C)(C)NC2=O)nc1N)c1cccc(C(F)(F)F)c1.O=C(O)C(O)C(O)C(=O)O [Hydrogen (R,R)-tartrate]	< 9.90 parts of H2 O
CN(C(=O)c1cnc(N2CC(C)(C)NC2=O)nc1N)c1cccc(C(F)(F)F)c1.Cc1ccc(S(=O)(=O)O)cc1 [p-Toluenesulfonate]	14.44 parts of H2 O
CN(C(=O)c1cnc(N2CC(C)(C)NC2=O)nc1N)c1cccc(C(F)(F)F)c1.Cl [Compound I as hydrochloride]	1.33 parts of H2 O

For this compound ( CN(C(=O)c1cnc(N2CC(C)(C)NC2=O)nc1N)c1cccc(C(F)(F)F)c1.O=[N+]([O-])O [Nitrate] ), measured 1 part by mass dissolves in . . . parts of H2 O is 8.13 parts of H2 O

For this compound ( CN(C(=O)c1cnc(N2CC(C)(C)NC2=O)nc1N)c1cccc(C(F)(F)F)c1 ), measured 1 part by mass dissolves in . . . parts of H2 O is 1220 parts of H2 O

###

The entries below come with measured solubility values attached.
MEASUREMENT_DESCRIPTION: physchem
TEST_PARAMETERS: water

Sample records with solubility:
COMPOUND	solubility
CN(C(=O)c1cnc(N2CC(C)(C)NC2=O)nc1N)c1cccc(C(F)(F)F)c1 [Compound I]	0.8 mg/mL
CN(C(=O)c1cnc(N2CC(C)(C)NC2=O)nc1N)c1cccc(C(F)(F)F)c1.Cl [Compound I as hydrochloride]	430 mg/mL
CN(C(=O)c1cnc(N2CC(C)(C)NC2=O)nc1N)c1cccc(C(F)(F)F)c1.O=C(O)C(O)C(O)C(=O)O [Hydrogen (R,R)-tartrate]	> 91 mg/mL
CN(C(=O)c1cnc(N2CC(C)(C)NC2=O)nc1N)c1cccc(C(F)(F)F)c1.Cc1ccc(S(=O)(=O)O)cc1 [p-Toluenesulfonate]	65 mg/mL

Switching to the query record.
For this compound ( CN(C(=O)c1cnc(N2CC(C)(C)NC2=O)nc1N)c1cccc(C(F)(F)F)c1.O=[N+]([O-])O [Nitrate] ), measured solubility is 110 mg/mL

###

TEST_PARAMETERS: Table 1; Temp. [°C]: No. 1 25.0, 2 23.0, 3 26.2, 4 25.1, 5 25.2, 6 24.1, 7 24.5, 8 24.2, 9 24.2, 10 25.7, 11 25.8
TEST_READOUT: 1 part by mass dissolves in . . . parts of H2 O

MOLECULE	VALUE_OBSERVED
COc1ccc(NC(=O)c2cnc(N3CC(C)(C)NC3=O)nc2N)cc1C(F)(F)F [Compound 7]	554 parts of H2 O
CCCC1(C)CN(c2ncc(C(=O)Nc3cc(C(F)(F)F)ccc3Cl)c(N)n2)C(=O)N1 (stereo not drawn) [Compound 8]	781 parts of H2 O
CC1(C)CN(c2ncc(C(=O)Nc3cc(C(F)(F)F)ccc3Cl)c(N)n2)C(=O)N1 [Compound 4]	217 parts of H2 O

For this molecule ( COc1ccc(C(F)(F)F)cc1NC(=O)c1cnc(N2CC(C)(C)NC2=O)nc1N [Compound 6] ), measured 1 part by mass dissolves in . . . parts of H2 O is 75 parts of H2 O

For this molecule ( CC1(C)CN(c2ncc(C(=O)Nc3ccc(F)c(C(F)(F)F)c3)c(N)n2)C(=O)N1 [Compound 3] ), measured 1 part by mass dissolves in . . . parts of H2 O is 703 parts of H2 O

For this molecule ( CC1NC(=O)N(c2ncc(C(=O)Nc3cccc(C(F)(F)F)c3)c(N)n2)C1C (stereo not drawn) [No. 11, reference compound] ), measured 1 part by mass dissolves in . . . parts of H2 O is 277 parts of H2 O

For this molecule ( CCCC1(C)CN(c2ncc(C(=O)Nc3cccc(C(F)(F)F)c3)c(N)n2)C(=O)N1 (stereo not drawn) [No. 10, reference compound] ), measured 1 part by mass dissolves in . . . parts of H2 O is 255 parts of H2 O

For this molecule ( CCCC1(C)CN(c2ncc(C(=O)Nc3ccc(Cl)c(C(F)(F)F)c3)c(N)n2)C(=O)N1 (stereo not drawn) [No. 9, reference compound] ), measured 1 part by mass dissolves in . . . parts of H2 O is 725 parts of H2 O

For this molecule ( CC1(C)CN(c2ncc(C(=O)Nc3ccc(Cl)c(C(F)(F)F)c3)c(N)n2)C(=O)N1 [Compound 5] ), measured 1 part by mass dissolves in . . . parts of H2 O is 1055 parts of H2 O
